IC50 overview
- system.tested: CDK19/CycC (Homo sapiens, UniProt Q9BWU1)
- Sequence (Q9BWU1 whole entry): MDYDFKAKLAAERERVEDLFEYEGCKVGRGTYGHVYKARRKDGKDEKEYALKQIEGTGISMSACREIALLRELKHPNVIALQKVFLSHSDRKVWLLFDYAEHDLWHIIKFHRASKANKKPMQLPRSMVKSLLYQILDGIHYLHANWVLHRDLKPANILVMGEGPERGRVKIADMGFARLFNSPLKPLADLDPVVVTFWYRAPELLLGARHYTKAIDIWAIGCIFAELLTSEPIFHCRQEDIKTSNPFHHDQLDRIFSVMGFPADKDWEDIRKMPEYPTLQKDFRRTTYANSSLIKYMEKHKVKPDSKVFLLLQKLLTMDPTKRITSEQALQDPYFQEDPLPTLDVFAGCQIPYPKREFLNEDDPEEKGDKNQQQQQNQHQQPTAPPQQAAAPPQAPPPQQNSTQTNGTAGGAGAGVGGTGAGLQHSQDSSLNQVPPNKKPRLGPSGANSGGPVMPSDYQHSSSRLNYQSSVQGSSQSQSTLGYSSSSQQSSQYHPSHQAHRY
- Sequence (P24863 whole entry partner): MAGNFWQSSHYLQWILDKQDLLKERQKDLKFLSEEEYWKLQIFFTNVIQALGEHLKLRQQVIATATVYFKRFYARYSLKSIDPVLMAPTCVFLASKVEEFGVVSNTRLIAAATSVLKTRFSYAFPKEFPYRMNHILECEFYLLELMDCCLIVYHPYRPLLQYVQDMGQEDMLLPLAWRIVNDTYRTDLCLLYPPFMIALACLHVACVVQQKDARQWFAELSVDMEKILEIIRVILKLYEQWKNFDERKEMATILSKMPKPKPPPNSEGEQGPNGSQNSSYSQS
- measurement.notes: LanthaScreen europium kinase binding assay (FRET displacement), CDK19
- condition.description: his-tagged CDK19/CycC 5 nM, tracer 10 nM, 3 h incubation
Note: unit µM is implicit; provide only the numeric part.

>>> assay_result("c1ccc2c(Nc3cnc(Nc4ccc(CC5CC5)cc4)nc3)ccnc2c1")
0.006
>>> assay_result("c1cc(Nc2cnc(Nc3ccc(C4COC4)cc3)nc2)c(OC2CCCC2)cn1")
0.011
>>> assay_result("FC(F)(F)c1cc(Nc2ncc(Nc3ccncc3)cn2)cc(C(F)(F)F)c1")
4.81
>>> assay_result("COc1cc(Nc2cnc(Nc3cccc(CC(C)C)c3)nc2)ccn1")
0.965
>>> assay_result("c1cc(Nc2cnc(Nc3ccc(C4CCCC4)cc3)nc2)c(OC2CCCC2)cn1")
0.0076
>>> assay_result("CC(C)Cc1ccc(Nc2ccc(C(=O)c3ccncc3)cn2)cc1")
0.005

Query: Using the record for CC(C)Cc1ccc(Nc2ncc(Nc3ccncc3C(=O)NC3CCCC3)cn2)cc1 , report its IC50.
Response: 0.219

Query: Likewise for Fc1ccc(Nc2ncc(Nc3ccncc3)cn2)cc1 ?
Response: 10

Query: Likewise for CC(C)Cc1ccc(Nc2ncc(Nc3cncnc3)cn2)cc1 ?
Response: 1.6
